# measurementDescription: Indiscriminate thiol reactivity assay with cysteine
# Format: physicochemical
# conditionLabel: pH 7.5; 23 h incubation with 10 mM cysteine at 37 °C; LC–MS UV trace
# Cysteine adduct pH 7.5 per record follows
quantityKind: Cysteine adduct pH 7.5 (%)

>>> readoutvalue("C=CC(=O)N1CCC[C@@H](n2nc(-c3ccc(Oc4ccccc4)cc3)c3c(N)ncnc32)C1 [Ibrutinib]")
99
>>> readoutvalue("CN(C)C/C=C/C(=O)Nc1cc2c(Nc3ccc(F)c(Cl)c3)ncnc2cc1O[C@H]1CCOC1 [Afatinib]")
98
>>> readoutvalue("CC#CC(=O)N1CCC[C@H]1c1nc(-c2ccc(C(=O)Nc3ccccn3)cc2)c2c(N)nccn12 [Acalabrutinib]")
98
>>> readoutvalue("CC(C)(F)C[C@H](N[C@@H](c1ccc(-c2ccc(S(C)(=O)=O)cc2)cc1)C(F)(F)F)C(=O)NC1(C#N)CC1 [ODN, odanacatib]")
17
>>> readoutvalue("CC(C)C[C@H](NC(=O)[C@H]1O[C@@H]1C(=O)O)C(=O)NCCCCN=C(N)N [Compound E-64, E-64]")
68

----------
# measurementDescription: Indiscriminate thiol reactivity assay with cysteine
# Type: physicochemical
# conditionLabel: pH 5.5; 23 h incubation with 10 mM cysteine at 37 °C; LC–MS UV trace
quantityKind: Cysteine adduct pH 5.5 (%)

>>> readoutvalue("C=CC(=O)N1CCC[C@@H](n2nc(-c3ccc(Oc4ccccc4)cc3)c3c(N)ncnc32)C1 [Ibrutinib]")
9
>>> readoutvalue("CN(C)C/C=C/C(=O)Nc1cc2c(Nc3ccc(F)c(Cl)c3)ncnc2cc1O[C@H]1CCOC1 [Afatinib]")
92
>>> readoutvalue("CC#CC(=O)N1CCC[C@H]1c1nc(-c2ccc(C(=O)Nc3ccccn3)cc2)c2c(N)nccn12 [Acalabrutinib]")
19

----------
# measurementDescription: Indiscriminate thiol reactivity assay with cysteine
# Format: physicochemical
# conditionLabel: pH 8.0; 23 h incubation with 10 mM cysteine at 37 °C; LC–MS UV trace
quantityKind: Cysteine adduct pH 8.0 (%)

>>> readoutvalue("CC#CC(=O)N1CCC[C@H]1c1nc(-c2ccc(C(=O)Nc3ccccn3)cc2)c2c(N)nccn12")
97
>>> readoutvalue("CN(C)C/C=C/C(=O)Nc1cc2c(Nc3ccc(F)c(Cl)c3)ncnc2cc1O[C@H]1CCOC1")
95
>>> readoutvalue("CC(C)(F)C[C@H](N[C@@H](c1ccc(-c2ccc(S(C)(=O)=O)cc2)cc1)C(F)(F)F)C(=O)NC1(C#N)CC1")
48
>>> readoutvalue("C=CC(=O)N1CCC[C@@H](n2nc(-c3ccc(Oc4ccccc4)cc3)c3c(N)ncnc32)C1")
96
>>> readoutvalue("CC(C)C[C@H](NC(=O)[C@H]1O[C@@H]1C(=O)O)C(=O)NCCCCN=C(N)N")
79

----------
# tgt: hCatK (Homo sapiens, UniProt P43235)
# Sequence (P43235 115-329): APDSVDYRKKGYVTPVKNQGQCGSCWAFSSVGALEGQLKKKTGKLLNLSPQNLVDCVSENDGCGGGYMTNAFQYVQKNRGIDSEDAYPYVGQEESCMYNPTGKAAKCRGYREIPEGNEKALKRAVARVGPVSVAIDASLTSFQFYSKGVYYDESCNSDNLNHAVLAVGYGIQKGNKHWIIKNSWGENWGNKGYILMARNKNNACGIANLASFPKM
# measurementDescription: Kinetic evaluation of covalent inhibitors
# Format: biochemical
quantityKind: Ki (nM)

>>> readoutvalue("CC(C)(F)C[C@H](N[C@@H](c1ccc(-c2ccc(S(C)(=O)=O)cc2)cc1)C(F)(F)F)C(=O)NC1(C#N)CC1")
3.8

Just for reference, paper PMC6396318 is where these values come from.
